Value source: ChEMBL document CHEMBL3885861

Species: Rattus norvegicus
Assay: Open TG-GATES - Regimen: Single
Format: toxicity, organism-based, Sprague-Dawley
Set-up: regimen Single, gender Male, age 6 weeks
Conditions: in vivo, po, 100 mg/kg, 9 h, tissue Plasma, route gavage, dose level Low
Item-by-item account of RALB
Report only the number, with the unit g/dL understood.

Read off the recorded RALB for `O=C(O)c1cc(/N=N/c2ccc(S(=O)(=O)Nc3ccccn3)cc2)ccc1O`
3.3

# return recorded RALB for entry `C[C@H](CS)C(=O)N1CCC[C@H]1C(=O)O`
3.6

Provide only the value of recorded RALB for `Clc1ccccc1CN1CCc2sccc2C1`
3.4

Determine from records and report RALB for `O=C(O)c1cn(C2CC2)c2cc(N3CCNCC3)c(F)cc2c1=O`
3.8

Name the recorded RALB of the item CCc1cc(C(N)=S)ccn1 [ETHIONAMIDE] in your answer.
3.5
